Assay: In vivo pharmacokinetics study, mouse
Details: male, BALB/c nude, plasma, iv, 1.75 mg/kg, IV 1.75 mg/kg, 8 h, mean of 3 mice, read-out: Plasma concentration, Mean
measurement_name: concentration at 8 h (ng/mL)
Reply with just the number (in ng/mL).

Task item: Dear colleague, please send me the reported concentration at 8 h for Cc1nnn(C)c1-c1cnc2c3c4cnn(C)c4ccc3n([C@H](c3ccccc3)C3CCOCC3)c2c1 when you can.
Reply: 54.1

* * *

Readings of IC50 for the listed molecules
Molecular target: BRD4 (BD1+BD2) (Homo sapiens, UniProt O60885)
Construct: purchased BPS 32612
Experiment: BRD4 (BD1+BD2) TR-FRET binding assay
Conditions: average IC50; nM; read-out: IC50, biochemical activity against BRD4 (BD1 + BD2)
Reply with just the number (in nM).

Recorded results for 2 molecules are shown here.
| mol_smiles | IC50 (nM) |
| --- | --- |
| Cc1nnn(C)c1-c1cnc2c3c4c(ccc3n([C@H](c3ccccc3)C3CCOCC3)c2c1)C(=O)N(C)C4 | 19.5 |
| Cc1nnn(C)c1-c1cnc2c3cc4c(cc3n([C@H](c3ccccc3)C3CCOCC3)c2c1)CN(C)C4=O | 18.1 |

Moving on to the next molecule.
Task item: Under BRD4 (BD1+BD2) (Homo sapiens, UniProt O60885), report IC50 for Cc1nnn(C)c1-c1cnc2c3cc4c(cc3n([C@H](c3ccccc3)C3CCOCC3)c2c1)C(=O)N(C)C4
Reply: 28.5

* * *

Assay: In vivo pharmacokinetics study, mouse
Details: male, BALB/c nude, plasma, IV 1.75 mg/kg, read-out: Vdss
measurement_name: Vd (L/kg)
Reply with just the number (in L/kg).

Task item: Dear colleague, please send me the reported Vd for Cc1nnn(C)c1-c1cnc2c3c4cnn(C)c4ccc3n([C@H](c3ccccc3)C3CCOCC3)c2c1 [NHWD-870] when you can.
Reply: 4.17

* * *

Test: in vitro
Conditions: human
measurement_name: recovery (%)
Reply with just the number (in %).

Task item: Dear colleague, please send me the reported recovery for CC(=O)CC(c1ccccc1)c1c(O)c2ccccc2oc1=O (stereo not shown) [Warfarin, reference compound] when you can.
Reply: 90.2

* * *

Assay: In vivo pharmacokinetics study, mouse
Settings: male, BALB/c nude, plasma, po, 5 mg/kg, PO 5 mg/kg, 24 h, mean of 3 mice, read-out: Plasma concentration, Mean
measurement_name: concentration at 24 h (ng/mL)
Reply with just the number (in ng/mL).

Task item: Dear colleague, please send me the reported concentration at 24 h for Cc1nnn(C)c1-c1cnc2c3c4cnn(C)c4ccc3n([C@H](c3ccccc3)C3CCOCC3)c2c1 when you can.
Reply: 1.32

* * *

Assay: Concentration in lungs and tumors of H526 xenograft model
Format: in vivo, mouse
Details: female, BALB/c nude, mouse, tumor, oral, 3 mg/kg, Group 4, 3 mg/kg Q2D, 8h, mean; read-out: Mean Concentration in Tumor
Method: Supplementary Figure 7. Pharmacokinetic profile of NHWD-870 using mouse and rat models. […] 98615821 on day 21. These mice were administrated the indicated drug daily for 21 days. Data are represented as mean ± SEM of 3 independent experiments. Source data are provided as a Source Data file. […] 9. In vivo pharmacokinetics study. Mouse and SD rat models were used to evaluate pharmacokinetic property of NHWD-870. […] Concentration of drugs in plasma, lung and tumor tissues were measured for the indicated time. […]
measurement_name: concentration at 8 h (ng/g)
Reply with just the number (in ng/g).

Task item: Dear colleague, please send me the reported concentration at 8 h for Cc1nnn(C)c1-c1cnc2c3c4cnn(C)c4ccc3n([C@H](c3ccccc3)C3CCOCC3)c2c1 [NHWD-870] when you can.
Reply: 425
